meta.source: PubChem BioAssay AID1159580

experiment: chemical genetic growth profiling, strain panel (AID 1159580);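 also: tested at 20 µM; growth read once vehicle control cultures reached saturation at 30 °C; 1 = growth at the plate median or of vehicle wells; lower values mean less growth of the strain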; conditions: S. cerevisiae deletion strains, growth OD, locus YKR026C, strain gcn3, active compounds read low
About 2,000 (36%) of roughly 5,500 compounds were called active. Not shown: some 18% with an inconclusive outcome. This is one part of the list.
MEASUREMENT_LABEL: normalized growth

- C=C1c2c(Cl)ccc(O)c2C(O)=C2C(=O)[C@]3(O)C(O)=C(C(N)=O)C(=O)[C@@H](N(C)C)[C@@H]3[C@@H](O)[C@H]12: 0.983
- CC12CCC(=O)C=C1CCC1C2[C@@H](O)CC2(C)C1CC[C@]2(O)C(=O)COP(=O)(O)O (stereo partly drawn): 1.01
- COc1ccc([C@@H]2CC(=O)c3c(O)cc(O[C@@H]4O[C@H](CO[C@H]5O[C@@H](C)[C@H](O)[C@@H](O)[C@H]5O)[C@@H](O)[C@H](O)[C@H]4O)cc3O2)cc1O: 0.979
- C[C@H]1c2cccc(O)c2C(O)=C2C(=O)[C@]3(O)C(O)=C(C(N)=O)C(=O)[C@@H](N(C)C)[C@@H]3[C@@H](O)[C@@H]21: 0.972
- Nc1ccc(S(=O)(=O)NC(=O)c2ccccc2)cc1: 0.969
- Cc1cn[nH]c1: 1.01
- CN(C)[C@@H]1C(=O)C(C(N)=O)=C(O)[C@@]2(O)C(=O)C3=C(O)c4c(O)cccc4[C@@](C)(O)[C@H]3[C@H](O)[C@@H]12: 1.01
- Oc1cccc(O)c1: 0.967
